Could you please report measured α-human koff for the items listed next?
Target or test system: T1, human α-CGRP (Homo sapiens, UniProt P06881)
T1 construct: 1-37 (WT); purchased GenScript Corporation or Global Peptide Services
T1 sequence (P06881 83-119 limits assumed): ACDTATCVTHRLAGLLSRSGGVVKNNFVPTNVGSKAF
Test summary: Biacore SPR affinity of Fab fragments to N-biotinylated human α-CGRP on SA chip
Format: binding
Run conditions: 37° C., screening mode except underlined values
Output spec: scalar in s⁻¹, unitless text.

// query For the molecule shown here, M60: G1 variant; L1 R28N T30D; L2 L56S; H2 E54K A57N S58R H61F; HC-FW3 L99T A100V (antibody, V domains shown) VH: EVQLVESGGGLVQPGGSLRLSCAASGFTFSNYWISWVRQAPGKGLEWVAEIRSKSDNRATFYAEAVKGRFTISRDNAKNSLYLQMNSLRAEDTAVYYCTVYFDYGLAIQNYWGQGTLVTVSS VL: EIVLTQSPATLSLSPGERATLSCKASKNVDTYVSWYQQKPGQAPRLLIYGASNRYSGIPARFSGSGSGTDFTLTISSLEPEDFAVYYCSQSYNYPYTFGQGTKLEIK , give the reported α-human koff.
// result 0.000911

// query Can you handle M57: G1 variant; L1 R28N T30D; L2 L56S; H2 E54K A57N S58E; HC-FW3 L99T A100V (antibody, V domains shown) VH: EVQLVESGGGLVQPGGSLRLSCAASGFTFSNYWISWVRQAPGKGLEWVAEIRSKSDNEATHYAEAVKGRFTISRDNAKNSLYLQMNSLRAEDTAVYYCTVYFDYGLAIQNYWGQGTLVTVSS VL: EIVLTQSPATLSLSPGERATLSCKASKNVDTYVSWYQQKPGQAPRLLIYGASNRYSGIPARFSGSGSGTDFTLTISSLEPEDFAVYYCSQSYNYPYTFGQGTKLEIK next?
// result 0.000322

Cited source: patent US20190071490A1
